experiment: qHTS assay to identify small molecule agonists of the hypoxia (HIF-1) signaling pathway (AID 1224846); conditions: HRE-bla ME-180 cells, beta-lactamase ratio, 17 h; series mostly up to 76.8 µM
Results filed as inconclusive are left out. Active and inactive are the calls of the source. Calls follow the shape of the dose curve; as a rule, active = well fitted activation curve with a large enough effect in the signal ratio in the repeat runs (not every such curve was filed as active); inconclusive = weak or mixed curves; inactive = flat fitted curve, though single readings scatter; the % refers to the signal ratio.
VALUE_TYPE: outcome

| SMILES_DATA | VALUE_TYPE | REPORTED_RESULT |
| --- | --- | --- |
| CC1=CC(=O)CC(C)(C)C1 | outcome | inactive |
| CCCCCCCCC(=O)O | outcome | inactive |
| O=C1CCCCCCCCCCC1 | outcome | inactive |

---

experiment: Human pregnane X receptor (PXR) small molecule agonists, qHTS cell viability counter screen (AID 1346977); settings: PXR-Luc HepG2 viability, CellTiter-Fluor, 24 h; series mostly up to 92.4 µM; also: nearly all actives have a fitted effect of over 50% in size
Results filed as inconclusive are left out. Activity calls are given as the source filed them. Calls follow the shape of the dose curve; as a rule, active = well fitted cell-killing curve with a large enough effect in the repeat runs; inconclusive = weak or mixed curves, or effect the other way; inactive = flat fitted curve, though single readings scatter.
// one of active, inactive, no free text

These recorded examples may help you get a feel for the data.
| COMPOUND | GROUP |
| --- | --- |
| O=c1c(O)c(-c2ccc(O)c(O)c2)oc2cc(O)cc(O)c12 | inactive |
| CC(=O)C(C)C | inactive |
| CS(=O)(=O)c1ccc(Cl)cc1 | inactive |
| CC(=O)OC[C@H]1O[C@@](COC(C)=O)(O[C@H]2O[C@H](COC(C)=O)[C@@H](OC(C)=O)[C@H](OC(C)=O)[C@H]2OC(C)=O)[C@@H](OC(C)=O)[C@@H]1OC(C)=O | inactive |
| CC(C)(C)NC[C@H](O)COc1nsnc1N1CCOCC1 | inactive |

## Input Check the results log: what was the call for CCc1cccc(CC)c1N ?
## Output inactive

## Input Same question for c1cnc2c(c1)ccc1cccnc12 please.
## Output active

## Input CCCCC(CC)COC(=O)c1ccc(C(=O)OCC(CC)CCCC)cc1 (stereo not drawn) ?
## Output inactive

Where do the numbers come from? From PubChem BioAssay (Tox21).
